System: THP-1
test protocol: cell viability (% survival relative to DMSO control, bortezomib = 0%); higher = less cytotoxic
measurement parameters: 10 nM; 72 h
Counter-ions that a name gives are not always drawn.
observed property: cell viability (%)
Just the number please, in %, no unit attached.

See these solved cases before continuing.
O=c1oc2c(O)c(O)cc3c(=O)oc4c(O)c(O)cc1c4c23; 97.3
O=C(NCCCCCCNC(=O)ONC1=CCCCC1)ONC1=CCCCC1; 114
COc1ccc(-c2ccccc2)cc1NS(=O)(=O)c1cc(Cl)cc(Cl)c1O; 98.4
CC(C)(C#N)c1cc(Cn2cncn2)cc(C(C)(C)C#N)c1; 93.4
Cc1cc(CS(=O)(=O)c2ccccc2)cc(OCc2ccc(CN3CCC[C@@H]3CO)cc2)c1 [PF-543 hydrochloride]; 95.5
O=C(O)CCCCC(CCSCc1ccccc1)SCc1ccccc1 (stereo unspecified); 90.1
COc1ccc2c(C(=S)N(C)CC(=O)O)cccc2c1C(F)(F)F; 94.8
COc1ccc(CNC(=O)Nc2ncc([N+](=O)[O-])s2)cc1; 101

The compound "COc1ccc(S(=O)(=O)N2CCN(S(=O)(=O)c3ccc4c(c3)OCCO4)CC2)cc1" showed cell viability equal to 103

The compound "O=C(C1CC1)N1CC[C@@H](C=C2NNC(=O)N2c2ccc(-c3ccc4occc4c3)cc2)C1" showed cell viability equal to 93.3

The compound "CC1(C)[C@@H](O[C@H]2O[C@H](C(=O)O)[C@@H](O)[C@H](O)[C@H]2O[C@@H]2O[C@H](C(=O)O)[C@@H](O)[C@H](O)[C@H]2O)CC[C@]2(C)[C@H]3C(=O)C=C4[C@@H]5C[C@@](C)(C(=O)O)CC[C@]5(C)CC[C@@]4(C)[C@]3(C)CC[C@@H]12" showed cell viability equal to 103

----------
Test system: MV4-11
test protocol: cell viability (% survival relative to DMSO control, bortezomib = 0%); higher = less cytotoxic
measurement parameters: 100 nM; 72 h
In this section, each of the compounds is paired with its reported cell viability.
Just the number please, in %, no unit attached.

See these solved cases before continuing.
CN(C)C(=O)[C@H](O)[C@H](Cc1ccccc1)NC(=O)c1cc2cc(Cl)ccc2[nH]1; 98.4
O=c1cc(-c2ccccc2)oc2cc(O)c(O)c(O)c12 [Baicalein]; 98.7
CCCCN1C[C@H](O)[C@@H](O)[C@H](O)[C@H]1CO [Miglustat]; 103
O[C@H]1[C@H]2[C@H](O)CCCN2C[C@H]1O [Swainsonine]; 87.2
O=C1c2cc([N+](=O)[O-])ccc2-n2c1nc1ccccc1c2=O [GNF-Pf-3777]; 97.1
COc1ccc(CNC(=O)Nc2ncc([N+](=O)[O-])s2)cc1; 108

The compound NCCCC(N)(C(=O)O)C(F)F (centres undefined) [Difluoromethylornithine] showed cell viability equal to 81.3

The compound O=C1O/C(=C/Br)CCC1c1cccc2ccccc12 (centres undefined) [Bromoenol Lactone] showed cell viability equal to 105

The compound C=C(C)[C@H]1Cc2c(ccc3c2O[C@@H]2COc4cc(OC)c(OC)cc4[C@@H]2C3=O)O1 [Rotenone] showed cell viability equal to 58.4

----------
Tested on: myeloid leukemia patient primary cells Pat.11
test protocol: area under dose-response curve (viability, 1 nM-10 uM) (fraction (0-1)); higher = more sensitive
measurement parameters: 72 h
observed property: area under dose-response curve

The compound COC(=O)[C@]12CCC(C)(C)C[C@H]1[C@H]1C(=O)C=C3[C@@]4(C)C=C(C#N)C(=O)C(C)(C)[C@@H]4CC[C@@]3(C)[C@]1(C)CC2 [Bardoxolone methyl] showed area under dose-response curve equal to 0.111

The compound COc1cc(/C=C/C(=O)N2CCC=CC2=O)cc(OC)c1OC [Piperlongumine] showed area under dose-response curve equal to 0.121

The compound O=C1O/C(=C/Br)CCC1c1cccc2ccccc12 (stereo not given) [Bromoenol Lactone] showed area under dose-response curve equal to 0.0656

The compound O=C(O)C1=CC(=C(c2ccc(O)c(C(=O)O)c2)c2ccc(O)c(C(=O)O)c2)C=CC1=O [Aurintricarboxylic acid] showed area under dose-response curve equal to < 0.0301

The compound Oc1ccc(Nc2nc(-c3ccc(Cl)cc3)cs2)cc1 [SKI II] showed area under dose-response curve equal to < 0.0301

----------
System: LAMA-84
test protocol: cell viability (% survival relative to DMSO control, bortezomib = 0%); higher = less cytotoxic
measurement parameters: 10 nM; 72 h
In this section, each of the molecules is paired with its reported cell viability.
Just the number please, in %, no unit attached.

See these solved cases before continuing.
CCCCCCCCCCCC(=O)c1c(O)c(C(=O)CCCCCCCCCCC)c(O)c(C2CC(c3ccc(O)cc3)Oc3cc(O)ccc32)c1O (centres undefined); 99.9
NS(=O)(=O)c1ccc([N+](=O)[O-])cc1 [4-Nitrobenzenesulfonamide]; 95.1
O=C(O)CCCCC(CCSCc1ccccc1)SCc1ccccc1 (centres undefined); 98.3
C=C(C=NNC(=N)N)NNC(=N)N; 104
COc1ccc(-c2ccccc2)cc1NS(=O)(=O)c1cc(Cl)cc(Cl)c1O; 95.1

The molecule "COc1ccc2c(C(=S)N(C)CC(=O)O)cccc2c1C(F)(F)F" showed cell viability equal to 106

The molecule "C[C@](N)(Cc1ccc(O)cc1)C(=O)O" showed cell viability equal to 108

The molecule Cc1cn([C@H]2C[C@H](O)[C@@H](COP(=O)(O)OP(=O)(O)O)O2)c(=O)[nH]c1=O [Thymidine diphosphate] showed cell viability equal to 97.9

The molecule "Cc1coc2c1C(=O)C(=O)c1c-2ccc2c1CCCC2(C)C" showed cell viability equal to 97.7

----------
In this section, each of the compounds is paired with its reported cell viability.
Tested on: MOLM-13
test protocol: cell viability (% survival relative to DMSO control, bortezomib = 0%); higher = less cytotoxic
measurement parameters: 1 nM; 72 h
Quick note: unit goes after the number.

See these solved cases before continuing.
CCN(CC)CCCC(C)Nc1ccnc2cc(Cl)ccc12 (stereo not drawn) [Chloroquine]; 103%
CCOC(=O)c1ccc(-c2ccc(OC(=O)N(C)Cc3cccc(-c4ccncc4)c3)cc2)cc1 [WWL113]; 120%
O=C(O)C1=CC(=C(c2ccc(O)c(C(=O)O)c2)c2ccc(O)c(C(=O)O)c2)C=CC1=O [Aurintricarboxylic acid]; 91.3%

The compound C=C(C)[C@H]1Cc2c(ccc3c2O[C@@H]2COc4cc(OC)c(OC)cc4[C@@H]2C3=O)O1 [Rotenone] showed cell viability equal to 103%

The compound N/C(=N\CCCC(N)C(=O)O)N[N+](=O)[O-] [L-NNA] showed cell viability equal to 102%

----------
Tested on: HL-60
test protocol: cell viability (% survival relative to DMSO control); higher = less cytotoxic
measurement parameters: 0.1 µM; 72 h; co-treatment: AZD3965 100 nM
In this section, each of the molecules is paired with its reported cell viability.
Just the number please, in %, no unit attached.

O=C(NNc1ccccc1)c1ccncc1 [PluriSln 1]; 96.2
O=C(O)C[C@@]1(O)C[C@@H](CCCCCCc2ccc(Cl)cc2Cl)OC1=O; 100
CC(C)(C#N)c1cc(Cn2cncn2)cc(C(C)(C)C#N)c1 [Anastrozole]; 102

The molecule O=C(O)c1cc(Cl)cc(Cl)c1O [3,5-Dichlorosalicylic Acid] showed cell viability equal to 99.4

The molecule CC(C)c1onc(-c2c(Cl)cccc2Cl)c1COc1ccc(/C=C/c2cccc(C(=O)O)c2)c(Cl)c1 [GW4064] showed cell viability equal to 91

The molecule COc1cc(/C=C/C(=O)N2CCC=CC2=O)cc(OC)c1OC [Piperlongumine] showed cell viability equal to 102

The molecule O=c1cc(-c2ccccc2)oc2cc(O)c(O)c(O)c12 [Baicalein] showed cell viability equal to 103

The molecule N/C(=N\CCCC(N)C(=O)O)N[N+](=O)[O-] [L-NNA] showed cell viability equal to 106

The molecule O=C1c2cc([N+](=O)[O-])ccc2-n2c1nc1ccccc1c2=O [GNF-Pf-3777] showed cell viability equal to 105

----------
Tested on: myeloid leukemia patient primary cells Pat.12
test protocol: cell viability (% survival relative to DMSO control); higher = less cytotoxic
measurement parameters: 1 nM; 72 h
Could you please mark T for values of cell viability below 90% and F for values at or above it?

Study these solved cases before continuing.
Nc1nc(Cl)nc2c1ncn2[C@H]1C[C@H](O)[C@@H](CO)O1; F
O=C1c2cc([N+](=O)[O-])ccc2-n2c1nc1ccccc1c2=O; F
Cc1c(-c2ccc(-c3ccccc3F)cc2)nc2ccc(F)cc2c1C(=O)O; T

Hello, I'm reviewing records and need to know if cell viability of "CN(C)C(=O)n1nnnc1Cc1ccc(-c2ccccc2)cc1" is below 90%. Could you check?
F

----------
System: KCL-22
test protocol: cell viability (% survival relative to DMSO control, bortezomib = 0%); higher = less cytotoxic
measurement parameters: 1 nM; 72 h
observed property: cell viability (%)
Just the number please, in %, no unit attached.

CCOC(=O)c1ccc(-c2ccc(OC(=O)N(C)Cc3cccc(-c4ccncc4)c3)cc2)cc1 [WWL113]; 132
COc1ccc(CNC(=O)Nc2ncc([N+](=O)[O-])s2)cc1; 106
Cc1c(-c2ccc(-c3ccccc3F)cc2)nc2ccc(F)cc2c1C(=O)O [Brequinar]; 101
O=C(NCCCCCCNC(=O)ONC1=CCCCC1)ONC1=CCCCC1; 106
N#CC(C#N)=NNc1ccc(OC(F)(F)F)cc1 [FCCP]; 110
COc1cc(/C=C/C(=O)N2CCC=CC2=O)cc(OC)c1OC [Piperlongumine]; 92.3
CC(C)c1nc(CN(C)C(=O)N[C@H](C(=O)N[C@@H](Cc2ccccc2)C[C@H](O)[C@H](Cc2ccccc2)NC(=O)OCc2cncs2)C(C)C)cs1 [Ritonavir]; 99.4

Continue with the next compound.
The compound O=C(O)C1=CC(=C(c2ccc(O)c(C(=O)O)c2)c2ccc(O)c(C(=O)O)c2)C=CC1=O [Aurintricarboxylic acid] showed cell viability equal to 131
